These entries and their values trace back to the supplement of paper PMC9233669.

- Test system: biotinyl-Leu-oxazolone
- protocol.text: self-aminoacylation, catalytic enhancement (BLO) (fold over background); higher = more active; k-Seq, kA / k0A0; sequences stand for … in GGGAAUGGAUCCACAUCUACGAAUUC…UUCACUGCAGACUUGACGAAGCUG
This sample holds only a part of the variants without activity.

| item.sequence | self-aminoacylation |
| --- | --- |
| GUUGACCUAGGUCAUCGGGUG [Fam2.2 aminoacylation ribozyme variant] | 5.05 |
| CCACACUUCAAGGAAUCGGUU [Fam1B.1 aminoacylation ribozyme variant] | 1.43 |
| AUUACCCUGCACAUCGAGUGA [Fam2.1 aminoacylation ribozyme variant] | 7.49 |
| AAGUUUGCGAAUCGUCGCAAG [Fam3.1 aminoacylation ribozyme variant] | 0.942 |
| CCAUACUUCCAGCAAUCGGUC [Fam1B.1 aminoacylation ribozyme variant] | 1.1 |
| AUUACCCUCGUCGUCGAGUGA [Fam2.1 aminoacylation ribozyme variant] | 2.04 |

* * *

- System: biotinyl-Met-oxazolone
- protocol.text: self-aminoacylation, catalytic enhancement (BMO) (fold over background); higher = more active; k-Seq, kA / k0A0; sequences stand for … in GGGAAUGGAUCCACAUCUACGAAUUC…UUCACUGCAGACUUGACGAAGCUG
Variants at the floor of the assay were thinned out.
Entry flag: met if self-aminoacylation reaches 2; not met if it does not.

| item.sequence | assigned.category |
| --- | --- |
| AAGUUUGCUACUAGCCGCAAG [Fam3.1 aminoacylation ribozyme variant] | not met |
| AUUUACCUAGCUCAUCGGGUG [Fam2.2 aminoacylation ribozyme variant] | met |
| CUACUUCAAACAAUCCGUCUU [Fam1A.1 aminoacylation ribozyme variant] | not met |
| AUUCACCUAGGUCAUCGGCUA [Fam2.2 aminoacylation ribozyme variant] | met |
| AUUCACCUAGGUGGUCGGGUG [Fam2.2 aminoacylation ribozyme variant] | met |
| GUUCACCUAGGUCAUCGGUUG [Fam2.2 aminoacylation ribozyme variant] | not met |
| ACUACCCUGGUCCUCGAGUGA [Fam2.1 aminoacylation ribozyme variant] | met |
| AAGUUUGCGACUAGUCGCAAG [Fam3.1 aminoacylation ribozyme variant] | not met |
| AUUAACGUGGUCAUCGAGUGA [Fam2.1 aminoacylation ribozyme variant] | met |
| AAGUUUGCUGAUAAUCGCAAG [Fam3.1 aminoacylation ribozyme variant] | not met |

* * *

- System: biotinyl-Met-oxazolone
- protocol.text: self-aminoacylation, catalytic enhancement (BMO) (fold over background); higher = more active; k-Seq, kA / k0A0; sequences stand for … in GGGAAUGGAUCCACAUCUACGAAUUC…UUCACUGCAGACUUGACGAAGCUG
This sample holds only a part of the variants without activity.
Listing of entries alongside the reported self-aminoacylation.

| item.sequence | self-aminoacylation |
| --- | --- |
| CUACUUCAAACAAUGGGUCUC [Fam1A.1 aminoacylation ribozyme variant] | 0.609 |
| AAGUUUUCUAAUCGUCGCAAG [Fam3.1 aminoacylation ribozyme variant] | 1.68 |
| CCACACAUCAGGCAAUCGGUC [Fam1B.1 aminoacylation ribozyme variant] | 1.03 |
| UUACUUCAGACAAUCGGUCUG [Fam1A.1 aminoacylation ribozyme variant] | 1.11 |
| CCCCACUUCAAGCAAUGGGUC [Fam1B.1 aminoacylation ribozyme variant] | 0.959 |
| CAAGUUCAAACAAUCGGUCUG [Fam1A.1 aminoacylation ribozyme variant] | 0.954 |
| GCACACUUAAAGCAAUCGGUC [Fam1B.1 aminoacylation ribozyme variant] | 1.06 |
| AUUAGCCUUGUCAUCGAGUGA [Fam2.1 aminoacylation ribozyme variant] | 3.73 |
| GUACUUCAAACAAUCGGCCUG [Fam1A.1 aminoacylation ribozyme variant] | 4.06 |
| AUUGACCUAGUUCAUCGGGUG [Fam2.2 aminoacylation ribozyme variant] | 3.19 |
| AUUCACCUAGGGCAUCCGGUG [Fam2.2 aminoacylation ribozyme variant] | 10.7 |
| AUAACCCUGGACAUCGAGUGA [Fam2.1 aminoacylation ribozyme variant] | 6.69 |
| UUACUUCAAACAAUCGGUCUG [Fam1A.1 aminoacylation ribozyme variant] | 1.29 |
| CUUUACCUAGGUCAUCGGGUG [Fam2.2 aminoacylation ribozyme variant] | 5.23 |
| AUUCACAUAGGUCAUCAGGUG [Fam2.2 aminoacylation ribozyme variant] | 1.41 |
| CUACACUUCAAGCAGUCGGUC [Fam1B.1 aminoacylation ribozyme variant] | 0.739 |
| AUUCACCUAGGUCUACGGGUG [Fam2.2 aminoacylation ribozyme variant] | 4.62 |
| AUUACCCCGGUCAUAGAGUGA [Fam2.1 aminoacylation ribozyme variant] | 7.91 |
| AAGUUUGCUAAUAGUCGUUAG [Fam3.1 aminoacylation ribozyme variant] | 0.676 |
| CAACUUCUAACAAUCGGUCUG [Fam1A.1 aminoacylation ribozyme variant] | 0.722 |
| AUUUCCCUGGUCAUCGAUUGA [Fam2.1 aminoacylation ribozyme variant] | 0.986 |
| GUUACCCUGGUCAUGGAGUGA [Fam2.1 aminoacylation ribozyme variant] | 4.85 |
| CUACUUCAAACACGCGGUCUG [Fam1A.1 aminoacylation ribozyme variant] | 1.64 |
| CUGCUUCAAACAAUCGGCCUG [Fam1A.1 aminoacylation ribozyme variant] | 3.69 |
| CCACACUUGAAGCCAUCGGUC [Fam1B.1 aminoacylation ribozyme variant] | 1.24 |
| AGUACCAUGGUCAUCGAGUGA [Fam2.1 aminoacylation ribozyme variant] | 6.66 |
| UUUACCCUGGUCAUCGCGUGA [Fam2.1 aminoacylation ribozyme variant] | 18.9 |

* * *

self-aminoacylation values for the sequences below.
- System: biotinyl-Trp-oxazolone
- protocol.text: self-aminoacylation, catalytic enhancement (BWO) (fold over background); higher = more active; k-Seq, kA / k0A0; sequences stand for … in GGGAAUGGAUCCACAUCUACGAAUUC…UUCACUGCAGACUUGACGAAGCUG
Fewer inactive variants are shown than the library holds.
readout.label: self-aminoacylation

| item.sequence | endpoint.result |
| --- | --- |
| CAGUUUGCUAAUAGUCACAAG [Fam3.1 aminoacylation ribozyme variant] | 1.3 |
| AUUCAGGUAGGUCAUCGGGUG [Fam2.2 aminoacylation ribozyme variant] | 5.12 |
| AUUAACCUAGGUCAUCGCGUG [Fam2.2 aminoacylation ribozyme variant] | 7.14 |
| AAGUUUGCUAAUAGUUGCAUG [Fam3.1 aminoacylation ribozyme variant] | 0.685 |
| AUUACCCUGGUCAUCGGGUGU [Fam2.1 aminoacylation ribozyme variant] | 133 |

* * *

- Tested on: biotinyl-Trp-oxazolone
- protocol.text: self-aminoacylation, catalytic enhancement (BWO) (fold over background); higher = more active; k-Seq, kA / k0A0; sequences stand for … in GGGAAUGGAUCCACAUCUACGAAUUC…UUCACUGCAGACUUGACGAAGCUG
Fewer inactive variants are shown than the library holds.
readout.label: self-aminoacylation

| item.sequence | endpoint.result |
| --- | --- |
| CUACUCCAAACAAUCGGUCUC [Fam1A.1 aminoacylation ribozyme variant] | 1.34 |
| CCACACUUCAUACAAUCGGUC [Fam1B.1 aminoacylation ribozyme variant] | 0.726 |
| ACGUUUGCUAAUAGUCGAAAG [Fam3.1 aminoacylation ribozyme variant] | 2.68 |
| AUUAUCCUGGUCAUGGAGUGA [Fam2.1 aminoacylation ribozyme variant] | 5.21 |
| AUUACCCUCGUCAUCGAGUGA [Fam2.1 aminoacylation ribozyme variant] | 3.22 |
| UUUCACCUAGGUUAUCGGGUG [Fam2.2 aminoacylation ribozyme variant] | 4.62 |
| CUUGUUCAAACAAUCGGUCUG [Fam1A.1 aminoacylation ribozyme variant] | 3.07 |
| AUUACCCUAGUCAUCGCGUGA [Fam2.1 aminoacylation ribozyme variant] | 10.1 |
| AUUCACCGAGGUGAUCGGGUG [Fam2.2 aminoacylation ribozyme variant] | 3.05 |
| CUACACUUCAAGCAGUCGGUC [Fam1B.1 aminoacylation ribozyme variant] | 0.628 |
| CGAAACUUCAAGCAAUCGGUC [Fam1B.1 aminoacylation ribozyme variant] | 5.43 |
| AUUACCCAGGUCACCGAGUGA [Fam2.1 aminoacylation ribozyme variant] | 10.3 |
| AUUACCCUUGUUAUCGAGUGA [Fam2.1 aminoacylation ribozyme variant] | 19.6 |
| UUUCACCUAGGUCAUCGGGCG [Fam2.2 aminoacylation ribozyme variant] | 4.57 |

* * *

- Tested on: biotinyl-Val-oxazolone
- protocol.text: self-aminoacylation, catalytic enhancement (BVO) (fold over background); higher = more active; k-Seq, kA / k0A0; sequences stand for … in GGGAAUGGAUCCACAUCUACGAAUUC…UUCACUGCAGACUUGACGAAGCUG
Fewer inactive variants are shown than the library holds.
Classify by measured self-aminoacylation: true (1) if it is equal to or exceeds 2, false (0) if it is smaller.

| item.sequence | assigned.category |
| --- | --- |
| AAGUUUGCUAAAAGUUGCAAG [Fam3.1 aminoacylation ribozyme variant] | false (0) |
| AAGUUUGCUAAUAGUCGCUAA [Fam3.1 aminoacylation ribozyme variant] | false (0) |
| CUGACCCUGGUCAUCGAGUGA [Fam2.1 aminoacylation ribozyme variant] | true (1) |
| AAGUUUGCUAAUCGUCGCAUG [Fam3.1 aminoacylation ribozyme variant] | false (0) |
| CCACACUUCUAGCAAUCGGUU [Fam1B.1 aminoacylation ribozyme variant] | false (0) |
| CCACACUUGAAGCCAUCGGUC [Fam1B.1 aminoacylation ribozyme variant] | false (0) |
| CUACUUGAAACAAUCGGACUG [Fam1A.1 aminoacylation ribozyme variant] | false (0) |
| CCAGACUUCAAGCAAUCGUUC [Fam1B.1 aminoacylation ribozyme variant] | false (0) |
| AUUCACCUGGUUCAUCGGGUG [Fam2.2 aminoacylation ribozyme variant] | true (1) |
| AAGUUUGAUCAUAGUCGCAAG [Fam3.1 aminoacylation ribozyme variant] | false (0) |
| AUUACCCUGGUCAGGGAGUGA [Fam2.1 aminoacylation ribozyme variant] | true (1) |
| ACGUUUGCUAAUAGGCGCAAG [Fam3.1 aminoacylation ribozyme variant] | false (0) |
| AUUCAACUAGGUCAUAGGGUG [Fam2.2 aminoacylation ribozyme variant] | false (0) |
| AUUCACAUAGGUCAUCAGGUG [Fam2.2 aminoacylation ribozyme variant] | false (0) |
